Where do these numbers come from? They come from patent US12024503B2.

# MEASURED_ON: JAK1 (Homo sapiens)
# Construct: purchased Carna Biosciences
# Sequence (P23458 whole entry): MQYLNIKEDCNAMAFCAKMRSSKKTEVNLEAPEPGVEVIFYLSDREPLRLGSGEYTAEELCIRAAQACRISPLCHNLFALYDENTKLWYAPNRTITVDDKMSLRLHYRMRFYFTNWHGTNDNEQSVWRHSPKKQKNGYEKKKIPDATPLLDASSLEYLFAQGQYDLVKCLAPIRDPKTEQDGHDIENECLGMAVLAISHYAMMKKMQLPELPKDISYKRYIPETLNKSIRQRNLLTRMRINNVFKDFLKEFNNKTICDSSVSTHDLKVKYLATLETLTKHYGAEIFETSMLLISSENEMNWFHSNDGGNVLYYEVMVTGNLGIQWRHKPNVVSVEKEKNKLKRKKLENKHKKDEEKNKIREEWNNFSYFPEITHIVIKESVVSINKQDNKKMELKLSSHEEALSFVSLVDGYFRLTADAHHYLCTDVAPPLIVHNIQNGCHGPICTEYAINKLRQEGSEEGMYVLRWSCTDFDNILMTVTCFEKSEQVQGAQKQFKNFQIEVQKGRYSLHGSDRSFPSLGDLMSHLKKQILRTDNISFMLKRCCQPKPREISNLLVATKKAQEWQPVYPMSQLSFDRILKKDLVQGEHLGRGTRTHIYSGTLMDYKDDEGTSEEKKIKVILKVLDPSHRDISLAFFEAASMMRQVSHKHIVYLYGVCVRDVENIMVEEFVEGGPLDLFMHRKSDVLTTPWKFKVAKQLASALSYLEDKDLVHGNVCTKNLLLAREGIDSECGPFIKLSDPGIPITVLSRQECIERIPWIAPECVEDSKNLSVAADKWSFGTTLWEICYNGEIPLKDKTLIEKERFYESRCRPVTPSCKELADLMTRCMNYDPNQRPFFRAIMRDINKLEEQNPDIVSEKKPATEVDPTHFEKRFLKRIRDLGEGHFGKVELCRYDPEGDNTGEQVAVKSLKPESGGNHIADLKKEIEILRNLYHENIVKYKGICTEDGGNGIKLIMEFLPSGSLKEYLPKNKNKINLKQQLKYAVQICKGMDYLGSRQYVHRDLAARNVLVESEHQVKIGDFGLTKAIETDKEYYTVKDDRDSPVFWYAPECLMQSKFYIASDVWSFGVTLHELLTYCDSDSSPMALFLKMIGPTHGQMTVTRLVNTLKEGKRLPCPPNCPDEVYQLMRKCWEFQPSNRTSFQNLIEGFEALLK
# EXPERIMENTAL_DETAILS: JAK1 microfluidic kinase assay (Caliper EZ Reader II, FAM labeled peptide substrate)
# Type: biochemical
# SETUP_CONDITIONS: (5 nM), 1 mM ATP; Table 2; read-out: IC50 JAK1 (5 nM) (1 mM ATP)
ATTRIBUTE_MEASURED: IC50

Record "CC(C)(C#N)COc1ccc(-c2nc(Nc3cnn(C4CC4)c3)ncc2Cl)cc1" , field IC50: 28.9 nM

Record "Cc1cnc(Nc2cnn(C3CC3)c2)nc1-c1ccc(OCC2(C#N)CC2)nc1" , field IC50: 65.1 nM

Record "Cc1cnc(Nc2cnn(C3CCN(C)CC3)c2)nc1-c1ccc(NCC2(C#N)CC2)cc1" , field IC50: 26.8 nM

Record "Cc1cnc(Nc2cnn(C3CCNCC3)c2)nc1-c1ccc(OCC(C)(C)C#N)c(F)c1" , field IC50: < 2.5 nM

Record "Cc1cnc(Nc2cnn(C3CCN(C)CC3)c2)nc1-c1ccc(OCC(C)(C)C#N)cc1" , field IC50: < 2.5 nM

Record "Cc1cnc(Nc2cnn(C3CC3)c2)nc1-c1ccc(N(C)CC2(C#N)CC2)c(F)c1" , field IC50: 10.8 nM

Record "CC(=O)N1CCC(n2cc(Nc3ncc(C)c(-c4ccc(OCC(C)(C)C#N)c(F)c4)n3)cn2)CC1" , field IC50: < 2.5 nM

Record Cc1cnc(Nc2cnn(C3CCOCC3)c2)nc1-c1ccc(OC(C)C(C)(C)C#N)cc1 (stereo not shown) , field IC50: 39.2 nM

Record "Cc1cnc(Nc2cnn(C3CCN(C(=O)C4CC4)CC3)c2)nc1-c1ccc(OCC2(C#N)CC2)c(F)c1" , field IC50: 6.2 nM

Record "COCCn1cc(Nc2ncc(C)c(-c3ccc(OCC4(C#N)CC4)c(F)c3)n2)cn1" , field IC50: 7.31 nM
